Catalogue of compounds with associated Herbicidal rating ECHORC
Test system: ECHORC (Watergrass (Calif.))
Assay: Postemergence weed control under flooded paddy conditions
Type: in vivo, Echinochloa oryzoides
Conditions: rate 0.0625 kg/ha, postemergence weeds, 3-4 weeks after treatment

Requested read-out: Herbicidal rating ECHORC. Entry: CCOC(=O)CN1C(=O)C(CC(=O)OCc2ccccc2)OC1=Nc1cc(-n2c(=O)cc(C(F)(F)F)n(C)c2=O)c(F)cc1Cl (stereo not shown) 5.0

Requested read-out: Herbicidal rating ECHORC. Entry: CN1C(=O)CSC1=Nc1cc(N2C(=O)C3=C(CCCC3)C2=O)c(F)cc1Cl 2.0

Requested read-out: Herbicidal rating ECHORC. Entry: CCC1SC(=Nc2cc(-n3c(=O)cc(C(F)(F)F)n(C)c3=O)c(F)cc2Cl)N(C)C1=O (stereo not shown) 1.0

Requested read-out: Herbicidal rating ECHORC. Entry: CCOC(=O)CN1CCSC1=Nc1cc(-n2nc(C)n(C(F)F)c2=O)c(F)cc1Cl 6.0
